Listed compounds paired with reported drug sensitivity score
Test system: KHYG-1 (IL-2 2.5 ng/mL)
Test: drug sensitivity score (DSS) (DSS units); higher = more sensitive; extreme values may be limits of the assay
Details: 72 h
testReadout: drug sensitivity score

# compound, testReadout, observedMeasurement
measured = [
    ("Nc1nc(OCc2cc(Br)cs2)c2[nH]cnc2n1 [Lomeguatrib] (max concentration tested 10000 nM)", "drug sensitivity score", 0),
    ("C=C(c1ccc(C(=O)O)cc1)c1cc2c(cc1C)C(C)(C)CCC2(C)C [Bexarotene] (max concentration tested 10000 nM)", "drug sensitivity score", 11.4),
    ("O=C(CCCCCCNC(=O)c1cnc(N(c2ccccc2)c2ccccc2)nc1)NO [Rocilinostat] (max concentration tested 10000 nM)", "drug sensitivity score", 11.5),
    ("Cc1c(CN2CCN(C(=O)[C@H](C)O)CC2)sc2c(N3CCOCC3)nc(-c3cnc(N)nc3)nc12 [Apitolisib] (max concentration tested 10000 nM)", "drug sensitivity score", 7.06),
    ("COc1ccc2c(OCc3nnc4ccc(-c5ccccc5)nn34)ccnc2c1 [AMG-208] (max concentration tested 2500 nM)", "drug sensitivity score", 0.59),
    ("NC(=O)Nc1cc(-c2cccc(F)c2)sc1C(=O)N[C@H]1CCCNC1 [AZD7762] (max concentration tested 1000 nM)", "drug sensitivity score", 18.4),
    ("COC(=O)N[C@@H](C)CNc1nccc(-c2cn(C(C)C)nc2-c2cc(Cl)cc(NS(C)(=O)=O)c2F)n1 [Encorafenib] (max concentration tested 1000 nM)", "drug sensitivity score", 16.3),
]

###

Tested on: SNK-6 (IL-2 2.5 ng/mL)
Experiment: percent inhibition of viability; higher = more inhibition
Conditions: 72 h; 10 nM
Labelling field: enter T if recorded percent inhibition of viability is less than 6%. Enter F if it equals or exceeds that cut-off.

# molecule, target, labelClass
rows = [
    ("COc1cc(CCc2cc(NC(=O)c3ccc(N4CC(C)NC(C)C4)cc3)n[nH]2)cc(OC)c1 (stereo not given) [AZD4547] (max concentration tested 1000 nM)", "SNK-6 (IL-2 2.5 ng/mL)", "F"),
    ("NC1(c2ccc(-c3nc4ccn5c(=O)[nH]nc5c4cc3-c3ccccc3)cc2)CCC1 [MK-2206] (max concentration tested 1000 nM)", "SNK-6 (IL-2 2.5 ng/mL)", "T"),
    ("c1ccc(Cn2c(-c3ccc(OC[C@H](C4CCNCC4)n4c(-c5ccccc5)nc5ccccc54)cc3)nc3ccccc32)cc1 [deltarasin] (max concentration tested 10000 nM)", "SNK-6 (IL-2 2.5 ng/mL)", "T"),
    ("CC[C@]1(O)C[C@H]2CN(CCc3c([nH]c4ccccc34)[C@@](C(=O)OC)(c3cc4c(cc3OC)N(C=O)[C@H]3[C@@](O)(C(=O)OC)[C@H](OC(C)=O)[C@]5(CC)C=CCN6CC[C@]43[C@@H]65)C2)C1 [Vincristine] (max concentration tested 1000 nM)", "SNK-6 (IL-2 2.5 ng/mL)", "F"),
]

###

Tested on: YT (IL-2 2.5 ng/mL)
Assay: percent inhibition of viability; higher = more inhibition
Conditions: 72 h; 100 nM
Listed compounds paired with reported percent inhibition of viability

# compound, percent inhibition of viability / %
records = [
    ("COc1cc(OC)c(/C=C/S(=O)(=O)Cc2ccc(OC)c(NCC(=O)O)c2)c(OC)c1 [Rigosertib] (max concentration tested 10000 nM)", 82.9),
    ("CN(N=O)C(=O)N[C@@H](C=O)[C@@H](O)[C@H](O)[C@H](O)CO [Streptozocin] (max concentration tested 10000 nM)", 1.58),
    ("Cc1ccc(-n2nc(C(C)(C)C)cc2NC(=O)Nc2ccc(OCCN3CCOCC3)c3ccccc23)cc1 [Doramapimod] (max concentration tested 10000 nM)", 7.83),
    ("COc1cccc2c1C(=O)c1c(O)c3c(c(O)c1C2=O)C[C@@](O)(/C(CO)=N/NC(=O)CCCCCN1C(=O)C=CC1=O)C[C@@H]3O[C@H]1C[C@H](N)[C@H](O)[C@H](C)O1 [Aldoxorubicin] (max concentration tested 1000 nM)", 70.5),
    ("O=C1NC(=O)[C@@H](c2cn3c4c(cccc24)CCC3)[C@@H]1c1c[nH]c2ccccc12 [Tivantinib] (max concentration tested 1000 nM)", 8.83),
]

###

Listed compounds paired with reported percent inhibition of viability
Tested on: normal NK cells expanded with K562-aAPC
Test: percent inhibition of viability; higher = more inhibition
Conditions: 72 h; IL-2 2.5 ng/mL; 0.1 nM
testReadout: percent inhibition of viability

# compound, observedMeasurement
data = [
    ("Cc1cccc(-c2nn3c(c2-c2ccnc4ccc(C(N)=O)cc24)CCC3)n1 [Galunisertib] (max concentration tested 1000 nM)", "-0.13%"),
    ("Cc1ccc(C(=O)Nc2ccc(CN3CCN(C)CC3)c(C(F)(F)F)c2)cc1C#Cc1cnc2cccnn12 [Ponatinib] (max concentration tested 1000 nM)", "-4.16%"),
    ("Cn1c(=O)n(-c2ccc(C(C)(C)C#N)cc2)c2c3cc(-c4cnc5ccccc5c4)ccc3ncc21 [Dactolisib] (max concentration tested 1000 nM)", "-4.3%"),
]

###

Listed compounds paired with reported percent inhibition of viability
Test system: normal primary NK cells, pool 3 (3 donors) (IL-2 2.5 ng/mL)
Assay: percent inhibition of viability; higher = more inhibition
Settings: 72 h; 0.1 nM

# compound, percent inhibition of viability / %
measured = [
    ("COC(=O)N[C@@H](C)CNc1nccc(-c2cn(C(C)C)nc2-c2cc(Cl)cc(NS(C)(=O)=O)c2F)n1 [Encorafenib] (max concentration tested 1000 nM)", -8.13),
    ("C[C@]12O[C@H](C[C@]1(O)CO)n1c3ccccc3c3c4c(c5c6ccccc6n2c5c31)CNC4=O [Lestaurtinib] (max concentration tested 1000 nM)", -8.42),
    ("COc1cccc2c1C(=O)c1c(O)c3c(c(O)c1C2=O)C[C@@](O)(/C(CO)=N/NC(=O)CCCCCN1C(=O)C=CC1=O)C[C@@H]3O[C@H]1C[C@H](N)[C@H](O)[C@H](C)O1 [Aldoxorubicin] (max concentration tested 1000 nM)", -11.3),
    ("Cc1cc2c(F)c(Oc3ncnn4cc(OC[C@@H](C)O)c(C)c34)ccc2[nH]1 [Brivanib] (max concentration tested 1000 nM)", -9.42),
    ("C[C@]12CC[C@@H]3c4ccc(O)cc4C[C@@H](CCCCCCCCC[S+]([O-])CCCC(F)(F)C(F)(F)F)[C@H]3[C@@H]1CC[C@@H]2O (some centres undefined) [Fulvestrant] (max concentration tested 1000 nM)", 6.08),
    ("NC1(c2ccc(-c3nc4ccn5c(=O)[nH]nc5c4cc3-c3ccccc3)cc2)CCC1 [MK-2206] (max concentration tested 1000 nM)", -11.3),
    ("CC(C)N(C[C@H]1O[C@@H](n2cnc3c(N)ncnc32)[C@H](O)[C@@H]1O)[C@H]1C[C@@H](CCc2nc3cc(C(C)(C)C)ccc3[nH]2)C1 [Pinometostat] (max concentration tested 1000 nM)", -1.26),
    ("Cn1c(=O)n(-c2ccc(C(C)(C)C#N)cc2)c2c3cc(-c4cnc5ccccc5c4)ccc3ncc21 [Dactolisib] (max concentration tested 1000 nM)", -3.41),
    ("NC(=O)c1cccc(-c2cccc(OC(=O)NC3CCCCC3)c2)c1 [URB597] (max concentration tested 1000 nM)", -10.1),
]

###

Listed compounds paired with reported percent inhibition of viability
Test system: KAI3 (IL-2 2.5 ng/mL)
Test: percent inhibition of viability; higher = more inhibition
Settings: 72 h; 10 nM

# compound, measureUnit, percent inhibition of viability
records = [
    ("Cn1c(CCCC(=O)O)nc2cc(N(CCCl)CCCl)ccc21 [Bendamustine] (max concentration tested 10000 nM)", "%", 1.91),
    ("NC(=S)N/N=C/c1ncccc1N [Triapine] (max concentration tested 10000 nM)", "%", 4.79),
    ("O=C(NC[C@H](O)CO)c1ccncc1Nc1ccc(I)cc1F [Pimasertib] (max concentration tested 10000 nM)", "%", 7.15),
    ("Oc1nc(-c2ccc(C(F)(F)F)cc2)nc2c1CSCC2 [XAV-939] (max concentration tested 10000 nM)", "%", 1.91),
    ("Cn1ncnc1[C@H]1c2n[nH]c(=O)c3cc(F)cc(c23)N[C@@H]1c1ccc(F)cc1 [Talazoparib] (max concentration tested 1000 nM)", "%", 25.1),
]

###

Tested on: NKL (IL-2 2.5 ng/mL)
Test: percent inhibition of viability; higher = more inhibition
Conditions: 72 h; 100 nM

# compound, percent inhibition of viability [%]
rows = [
    ("CC[C@H](C)C(=O)O[C@H]1C[C@@H](C)C=C2C=C[C@H](C)[C@H](CC[C@@H]3C[C@@H](O)CC(=O)O3)[C@H]21 [Lovastatin] (max concentration tested 10000 nM)", -16.3),
    ("Clc1ccc(Nc2nnc(Cc3ccncc3)c3ccccc23)cc1 [Vatalanib] (max concentration tested 10000 nM)", -1.27),
    ("Cn1cc(C2=C(c3cn(C4CCN(Cc5ccccn5)CC4)c4ccccc34)C(=O)NC2=O)c2ccccc21 [Enzastaurin] (max concentration tested 10000 nM)", 6.99),
]
